Entry source: patent US8334315B2

molecular target: hVR1 (Homo sapiens); construct: expressed in transfected cells; host or cells: CHO K1 cells (ECACC), stably transfected; test: Functional test on VR1, FLIPR Ca2+ influx in transfected CHO K1 cells, capsaicin; assay type: cell-based, human being; details: capsaicin (Cap); includes values given in brackets after pAG; read-out: Ki (human being) [nM] Cap
Sequence (Q8NER1 whole entry): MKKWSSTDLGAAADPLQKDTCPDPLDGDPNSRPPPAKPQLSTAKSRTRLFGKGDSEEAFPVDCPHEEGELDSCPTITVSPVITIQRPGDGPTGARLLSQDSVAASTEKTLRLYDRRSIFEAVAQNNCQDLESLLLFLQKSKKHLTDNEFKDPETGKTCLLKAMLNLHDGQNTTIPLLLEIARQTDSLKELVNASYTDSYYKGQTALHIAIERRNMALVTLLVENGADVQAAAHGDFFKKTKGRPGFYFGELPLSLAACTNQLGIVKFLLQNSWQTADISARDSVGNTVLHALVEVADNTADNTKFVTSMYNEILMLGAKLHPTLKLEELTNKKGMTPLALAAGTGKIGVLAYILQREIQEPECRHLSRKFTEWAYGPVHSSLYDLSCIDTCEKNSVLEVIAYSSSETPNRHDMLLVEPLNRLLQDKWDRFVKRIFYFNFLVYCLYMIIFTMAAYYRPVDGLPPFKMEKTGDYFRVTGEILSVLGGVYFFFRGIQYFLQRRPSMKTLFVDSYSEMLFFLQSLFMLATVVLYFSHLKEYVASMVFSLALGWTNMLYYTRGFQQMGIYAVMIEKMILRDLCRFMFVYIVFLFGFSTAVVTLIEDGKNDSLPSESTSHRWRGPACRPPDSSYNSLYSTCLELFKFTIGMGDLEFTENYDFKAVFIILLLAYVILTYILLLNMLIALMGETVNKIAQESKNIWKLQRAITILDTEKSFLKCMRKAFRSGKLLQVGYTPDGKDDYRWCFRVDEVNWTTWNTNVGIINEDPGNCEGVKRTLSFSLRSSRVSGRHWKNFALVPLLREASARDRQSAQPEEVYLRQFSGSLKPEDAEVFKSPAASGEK
Binary call on Ki with cut-off 40 nM: strictly below means condition met, and equality or higher means condition not met.

CC(C)(C)c1cc(CNC(=O)Nc2ccc3c(c2)CCC3)n(-c2ccc(F)c(Cl)c2)n1 | condition met
O=C(NCc1cc(C(F)(F)F)nn1-c1ccc(C(F)(F)F)cc1)Nc1ccc2c(c1)CCC2 | condition met
CC(C(=O)NCc1cc(C(C)(C)C)nn1-c1cccc(Cl)c1)c1cc(F)cc2[nH]ncc12 (stereo not drawn) | condition met
O=C(NCc1cc(C(F)(F)F)nn1-c1cccc(Cl)c1)Nc1cccc2ccc(O)cc12 | condition met

Problem: is_below(Ki, 40 nM) for CC(C(=O)NCc1cc(C(F)(F)F)nn1-c1cccc(Cl)c1)c1cccc2c1CC(O)C2 (stereo not drawn) ?
Result: condition not met

Problem: is_below(Ki, 40 nM) for Cc1cc2c(C(C)C(=O)NCc3cc(C(F)(F)F)nn3-c3cccc(Cl)c3)cccc2c(C)n1 (stereo not drawn) ?
Result: condition met

Problem: is_below(Ki, 40 nM) for CC(C)(C)c1cc(CNC(=O)Nc2ccc3c(c2)CCC3)n(-c2cc(Cl)cc(Cl)c2)n1 ?
Result: condition met

Problem: is_below(Ki, 40 nM) for CC(C(=O)NCc1cc(C(F)(F)F)nn1-c1cccc(Cl)c1)c1ccc2c(c1)CCC(C)(C)O2 (stereo not drawn) ?
Result: condition not met

Problem: is_below(Ki, 40 nM) for CC(C(=O)NCc1cc(C(F)(F)F)nn1C1CCCCC1)c1ccc2c(c1)OCCO2 (stereo not drawn) ?
Result: condition not met

----------
target: rat-species vanilloid receptor 1 (VR1/TRPV1) (Rattus norvegicus); construct: endogenous in cells; host or cells: primary cells dissociated from rat dorsal root ganglia (DRG), cultured 2-3 days with NGF; test: Functional testing on the vanilloid receptor 1, FLIPR Ca2+ influx in rat DRG cells, capsaicin; assay type: cell-based; parameters: key: agonist / partial agonist / no effect: AG=agonist; pAG=partial agonist; NE=no effect
Sequence (O35433 whole entry): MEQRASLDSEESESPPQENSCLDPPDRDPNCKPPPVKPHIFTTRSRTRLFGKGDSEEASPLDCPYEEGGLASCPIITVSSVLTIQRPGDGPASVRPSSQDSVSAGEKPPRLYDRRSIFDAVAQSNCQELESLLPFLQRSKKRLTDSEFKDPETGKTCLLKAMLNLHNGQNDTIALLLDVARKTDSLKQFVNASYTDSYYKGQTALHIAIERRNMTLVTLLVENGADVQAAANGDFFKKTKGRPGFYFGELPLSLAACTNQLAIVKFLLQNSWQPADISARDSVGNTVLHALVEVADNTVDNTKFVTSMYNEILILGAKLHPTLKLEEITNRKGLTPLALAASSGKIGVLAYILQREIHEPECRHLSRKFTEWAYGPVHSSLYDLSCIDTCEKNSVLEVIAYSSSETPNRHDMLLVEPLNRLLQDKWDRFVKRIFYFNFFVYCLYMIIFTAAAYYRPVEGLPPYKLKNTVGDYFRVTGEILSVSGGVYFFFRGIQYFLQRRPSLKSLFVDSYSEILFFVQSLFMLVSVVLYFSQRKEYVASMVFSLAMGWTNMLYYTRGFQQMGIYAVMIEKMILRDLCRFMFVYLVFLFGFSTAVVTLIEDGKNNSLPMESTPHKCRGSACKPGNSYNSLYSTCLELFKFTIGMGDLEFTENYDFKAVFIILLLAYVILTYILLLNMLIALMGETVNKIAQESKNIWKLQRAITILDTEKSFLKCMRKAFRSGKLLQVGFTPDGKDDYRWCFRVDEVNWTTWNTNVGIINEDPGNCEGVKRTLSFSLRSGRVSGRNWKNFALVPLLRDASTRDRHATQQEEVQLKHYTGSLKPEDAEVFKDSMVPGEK
measured_attribute: Ki (rat) [nM] Cap: agonist / partial agonist / no effect

CC(C(=O)NCc1cc(C(C)(C)C)nn1-c1cccc(Cl)c1)c1cccc2c1OCCO2 (stereo not shown) | AG
CC(C(=O)NCc1cc(C(C)(C)C)nn1-c1cccc(Cl)c1)c1ccc2c(c1)OCCO2 (stereo not shown) | pAG
CC(C(=O)NCc1cc(C(C)(C)C)nn1-c1cccc(Cl)c1)c1cccc2cnccc12 (stereo not shown) | pAG
CC(C(=O)NCc1cc(C(C)(C)C)nn1-c1ccc(F)c(Cl)c1)c1cccc2cnccc12 (stereo not shown) | pAG

----------
target: hVR1 (Homo sapiens); construct: expressed in transfected cells; host or cells: CHO K1 cells (ECACC), stably transfected; test: Functional test on VR1, FLIPR Ca2+ influx in transfected CHO K1 cells, capsaicin; type: cell-based, human being; design: key: agonist / partial agonist / no effect: AG=agonist; pAG=partial agonist; NE=no effect
measured_attribute: Ki (human being) [nM] Cap: agonist / partial agonist / no effect

Consider the worked cases shown below.
CC(C)(C)c1cc(CNC(=O)Nc2cccc3c2CCC3)n(-c2cccc(Cl)c2)n1 | pAG
CC(C(=O)NCc1cc(C(C)(C)C)nn1-c1cccc(Cl)c1)c1ccc2cc(O)ccc2c1 (centres unmarked) | AG
CC(C(=O)NCc1cc(C(F)(F)F)nn1-c1cccc(Cl)c1)c1cccc2c1CCC2=O (centres unmarked) | pAG
CC(C(=O)NCc1cc(C(C)(C)C)nn1-c1cccc(Cl)c1)c1cccc2ncccc12 (centres unmarked) | AG
O=C(NCc1cc(C(F)(F)F)nn1-c1cccc(Cl)c1)Nc1ccc2ncsc2c1 | pAG
CC(C(=O)NCc1cc(C(F)(F)F)nn1-c1cccc(Cl)c1)c1ccc2[nH]ncc2c1 (centres unmarked) | pAG
CC(C(=O)NCc1cc(C(F)(F)F)nn1-c1cccc(Cl)c1)c1ccc2cc(O)ccc2c1 (centres unmarked) | pAG

Please find the next compound below.
Problem: Which measured Ki (human being) [nM] Cap: agonist / partial agonist / no effect value corresponds to CC(C(=O)NCc1cc(C(C)(C)C)nn1-c1cccc(Cl)c1)c1ccc2c(c1)OCCO2 (centres unmarked) ?
Result: pAG
